This listing pairs compounds with measured IC50.
# System: TLR2 induced IL-6 in peripheral blood mononuclear cells (PBMCs)
# ASSAY PROCEDURE: PBMC TLR2 Induced IL-6 Assay
# Assay type: cell-based, human
# PROTOCOL CONDITIONS: Homo sapiens, PBMC, 5 h, human PBMCs, 10 μg/ml lipoteichoic acid for 5 hours, IL-6 by ELISA; value without asterisk; read-out: Cell IC50
Report the figure along with its unit, number first.

Field: example entries. Status: answers known.
## Input Look up IC50: CC(C)(O)[C@H](F)CNC(=O)c1cnc(Nc2ccc3ncsc3n2)cc1NC1CCOCC1 [Example 312]
## Output 29 nM

## Input Quick one: CCNC(=O)c1ccc(Nc2cc(Nc3ccc4ncsc4c3)ncc2C(=O)NC[C@@H](F)C(C)(C)O)cc1 [Example 322]
## Output 495 nM

## Input Quick one: CC(C)(O)[C@H](F)CNC(=O)c1cnc(Nc2ccc3ncsc3c2)cc1Nc1ccc(C(=O)NCCO)cc1 [Example 325]
## Output 853 nM

## Input Quick one: CC(C)Nc1cc(Nc2ccc3ncsc3c2)ncc1C(=O)N[C@H]1CC[C@H](C(=O)NC(C)C)CC1 [Example 195]
## Output 162 nM

## Input Quick one: CC(C)(O)[C@H](F)CNC(=O)c1cnc(Nc2ccc3ncsc3c2)cc1Nc1ccc(S(C)(=O)=O)cc1 [Example 382]
## Output 491 nM

More entries:
## Input Look up IC50: CC(C)Nc1cc(Nc2ccc3ncsc3c2)ncc1C(=O)NCC[C@@H](C)NC(=O)N1CCOCC1 [Example 182]
## Output 508 nM

## Input Quick one: CC(=O)N[C@H]1CC[C@H](NC(=O)c2cnc(Nc3nc4ccnn4cc3F)cc2NC(C)C)CC1 [Example 512]
## Output 602 nM

* * *

This listing pairs compounds with measured pIC50.
# System: TLR2 induced IL-6 in peripheral blood mononuclear cells (PBMCs)
# ASSAY PROCEDURE: PBMC TLR2 Induced IL-6 Assay
# Assay type: cell-based, human
# PROTOCOL CONDITIONS: Homo sapiens, PBMC, 5 h, human PBMCs, 10 μg/ml lipoteichoic acid for 5 hours, IL-6 by ELISA; value without asterisk; read-out: Cell IC50
Schema: pIC50 number; meaning minus log10 of the concentration expressed in molar units.

Field: example entries. Status: answers known.
## Input Look up pIC50: CC(=O)N[C@H]1CC[C@H](NC(=O)c2cnc(Nc3ccc4ncsc4c3)cc2N[C@H]2CCOC[C@@H]2F)CC1 [Example 511]
## Output 6.21

## Input Quick one: Cc1cc2nc(Nc3cc(NC(C)C)c(C(=O)NC[C@@H](F)C(C)(C)O)cn3)ccn2n1 [Example 250]
## Output 6.13

Consider the record given below.
## Input Look up pIC50: CC(CO)Nc1cc(Nc2ccc3ncsc3c2)ncc1C(=O)NC[C@@H](F)C(C)(C)O (stereo partly drawn) [Example 39]
## Output 6.30

* * *

# Test system: TLR2 induced IL-6 in peripheral blood mononuclear cells (PBMCs)
# ASSAY PROCEDURE: PBMC TLR2 Induced IL-6 Assay
# Assay type: cell-based, human
# PROTOCOL CONDITIONS: Homo sapiens, PBMC, 5 h, human PBMCs, 10 μg/ml lipoteichoic acid for 5 hours, IL-6 by ELISA; value without asterisk; read-out: Cell IC50
This listing pairs compounds with measured IC50.
The reply should contain only the number, in nM.

Field: example entries. Status: answers known.
## Input Look up IC50: CC(=O)NCCNC(=O)c1cnc(Nc2ccc3ncsc3c2)cc1NC1CCCC1 [Example 152]
## Output 596

## Input Quick one: CCC(O)(CC)[C@H](F)CNC(=O)c1cnc(Nc2ccn3nccc3n2)cc1NCC(C)(C)F [Example 389]
## Output 574

## Input Quick one: CC(C)(O)[C@H](F)CNC(=O)c1cnc(Nc2cc3scnc3cc2F)cc1NC1CCOCC1 [Example 520]
## Output 1060

## Input Quick one: O=C(NC[C@@H](F)CO)c1cnc(Nc2ccc3ncsc3c2)cc1NC1CCCC1O (some centres unmarked) [Example 337]
## Output 799

## Input Quick one: CC(C)Nc1cc(Nc2ccc3ncc(F)cc3n2)ncc1C(=O)NC[C@@H](F)C(C)(C)O [Example 427]
## Output 42

## Input Quick one: CC(C)(O)[C@H](F)CNC(=O)c1cnc(Nc2ccc3ncsc3c2)cc1Nc1ccc(-c2cc[nH]n2)cc1 [Example 414]
## Output 256

## Input Quick one: CNC(=O)[C@H]1CC[C@H](NC(=O)c2cnc(Nc3nc4ccnn4cc3F)cc2NC2CC2)CC1 [Example 508]
## Output 10000

## Input Quick one: CCCNC(=O)c1ccc(Nc2cc(Nc3ccc4ncsc4c3)ncc2C(=O)NC[C@@H](F)C(C)(C)O)cc1 [Example 326]
## Output 437

## Input Quick one: CC(C)Nc1cc(Nc2ccc3ncsc3c2)ncc1C(=O)NCC[C@@H](C)NC(=O)[C@@H]1CCC(F)(F)C1 [Example 186]
## Output 361

## Input Quick one: CCC(C)Nc1cc(Nc2ccn3nccc3n2)ncc1C(=O)NC[C@@H](F)C(C)(C)O (some centres unmarked) [Example 387]
## Output 293

More entries:
## Input Look up IC50: CC(C)(C)Nc1cc(Nc2ccc3ncsc3c2)ncc1C(=O)NC[C@@H](F)C(C)(C)O [Example 83]
## Output 133

## Input Quick one: CC(C)(O)C(F)(F)CNC(=O)c1cnc(Nc2ccc3nccn3n2)cc1NC1CC1 [Example 283]
## Output 417

## Input Quick one: CC(C)(O)[C@H](F)CNC(=O)c1cnc(Nc2ccc3ncncc3c2)cc1NC1CCCC1F (some centres unmarked) [Example 345]
## Output 246

## Input Quick one: CC(C)(F)CNc1cc(Nc2ccn3nccc3n2)ncc1C(=O)NC[C@@H](F)C(C)(C)O [Example 253]
## Output 308
